B1: LINE1-full (parent)
chain: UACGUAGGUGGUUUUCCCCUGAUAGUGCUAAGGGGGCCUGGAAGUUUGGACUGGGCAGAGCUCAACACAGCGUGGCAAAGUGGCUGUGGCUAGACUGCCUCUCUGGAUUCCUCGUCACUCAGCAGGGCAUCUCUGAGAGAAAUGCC

# Variants of: B1
# Protocol Text: self-cleavage, relative activity (ratio to wild type); higher = more cleavage; in vitro, sequencing; the parent is a self-cleaving ribozyme
Endpoint: self-cleavage

QUERY: Read the entry UACGUAGGUGGUUUUCCCCUGAUAGUGCUAAGGGGGCCUAGAAGUUUGGACUGGGCAGAGCUCAGCACAGCGUGGCAAAGUGGCUGUGGCUAGACUGCCUCUCUGGAUUCCUCGUCACUCAGCAGGGCAUCUCUGAGAGAAAUGCC [G40A A65G] and write its reported self-cleavage.
RESULT: 0.04

QUERY: Read the entry UACGUAGGUGGUUUUCCCCUGAUAGUGCUAAGGGGGCCUGGAAGUUUGGACGGGGCAGAGCUCAACACAGCGUGGCAAAGUGGCUGUGGCUAGACUGCCUCUCUGGAUUCCUCGUCACUCAGCAGGGCAUCUCUGAGAGAAAUGCC [U52G] and write its reported self-cleavage.
RESULT: 1.45

QUERY: Read the entry UACGUAGGUGGUUUUCCCCUGAUAGUGCUAAGGGGGCCUGGAAGUUUGGACUGGGCAGAGCUCAACACUGCGUGGCAAAGUGGCUGUGGCUAGACUGCCUCUCUGGAUUCCUCGUCACUUAGCAGGGCAUCUCUGAGAGAAAUGCC [A69U C120U] and write its reported self-cleavage.
RESULT: 0.07

QUERY: Read the entry UACGUAGGUGGUUUUCCCCUGAUAGUGCUAAGGGGGCCUGGAAGUUUGGACUGGGCAGAGCUCAACACAGCGUGGCAAAGGGGCUGUGGCUAGACUGCCUCUCUGGAUUCCUCGUCACCCAGCAGGGCAUCUCUGAGAGAAAUGCC [U81G U119C] and write its reported self-cleavage.
RESULT: 1.54
